# Kd per entry
Biological target: T1, cynomolgus monkey TF ECD-His6 (cynomolgus monkey (Macaca fascicularis))
T1 construct: Expi293-derived; also called TF-His; cTF
T1 chain: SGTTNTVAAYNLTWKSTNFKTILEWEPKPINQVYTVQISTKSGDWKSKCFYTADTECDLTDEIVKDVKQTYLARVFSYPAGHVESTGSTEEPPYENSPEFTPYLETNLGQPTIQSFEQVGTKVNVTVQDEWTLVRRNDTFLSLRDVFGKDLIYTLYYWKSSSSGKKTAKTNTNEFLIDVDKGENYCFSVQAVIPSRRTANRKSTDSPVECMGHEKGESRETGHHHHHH
Assay: SPR (Biacore), TF-His over coupled antibody
Report only the number, with the unit nM understood.

Here are 2 binders together with their reported answers.
25G (antibody, human IgG1, V domains shown, Human IgG1; also called antibody designated 25G) VH: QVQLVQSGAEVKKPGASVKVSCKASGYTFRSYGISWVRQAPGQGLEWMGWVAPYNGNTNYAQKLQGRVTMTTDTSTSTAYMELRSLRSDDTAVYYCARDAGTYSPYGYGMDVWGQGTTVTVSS VL: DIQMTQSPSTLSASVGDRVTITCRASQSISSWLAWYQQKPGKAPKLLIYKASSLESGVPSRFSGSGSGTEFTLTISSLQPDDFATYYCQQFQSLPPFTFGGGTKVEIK | 18
43B (antibody, human IgG1, V domains shown, Human IgG1; also called antibody designated 43B) VH: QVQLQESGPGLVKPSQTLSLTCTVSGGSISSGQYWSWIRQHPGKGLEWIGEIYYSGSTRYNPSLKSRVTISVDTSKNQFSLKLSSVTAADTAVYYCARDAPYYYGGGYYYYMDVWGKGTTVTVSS VL: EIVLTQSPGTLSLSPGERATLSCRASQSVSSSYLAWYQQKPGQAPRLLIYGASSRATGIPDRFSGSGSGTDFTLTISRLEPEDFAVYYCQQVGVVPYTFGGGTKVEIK | 5.64

// next item, Kd requested
Recorded Kd (binder 43B7 (antibody, human IgG1, V domains shown, Human IgG1; also called antibody designated 43B7) VH: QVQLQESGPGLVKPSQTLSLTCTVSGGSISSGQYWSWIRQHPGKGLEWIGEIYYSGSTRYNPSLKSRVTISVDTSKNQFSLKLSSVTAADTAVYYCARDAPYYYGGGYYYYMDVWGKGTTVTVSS VL: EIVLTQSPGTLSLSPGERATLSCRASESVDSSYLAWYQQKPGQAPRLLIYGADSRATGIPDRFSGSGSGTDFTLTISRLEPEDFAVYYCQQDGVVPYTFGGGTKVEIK ): 0.24
